Each entry below carries its recorded B-score binding assay.
Target or system: human NTCP (Homo sapiens, UniProt Q14973)
Method: Screening fluorescent competitive Myrcludex B-FITC binding assay (96-well, 10 µM drug)
Experimental parameters: Prestwick library screen, 10 µM drug; B-score of Myrcludex B-FITC binding
Where a name gives a salt, the structure may show the parent alone.
Field format: numeric only.

Some compounds with known B-score binding assay results, for comparison:
Compound | B-score binding assay
Cc1ccnc(NS(=O)(=O)c2ccc(N)cc2)n1 | 0.205
CCC1(C)CC(=O)NC1=O (stereo not shown) [Ethosuximide] | 0.697

Exercise: Would you kindly share the measured B-score binding assay for Cc1onc(-c2c(Cl)cccc2Cl)c1C(=O)N[C@@H]1C(=O)N2[C@@H]1SC(C)(C)[C@@H]2C(=O)[O-].O.[Na+] [Dicloxacillin sodium salt hydrate] ?
Solution: 0.373

Exercise: Would you kindly share the measured B-score binding assay for O=C(O)c1cc(=O)c2c(OCC(O)COc3cccc4oc(C(=O)O)cc(=O)c34)cccc2o1 [Cromolyn disodium salt] ?
Solution: 0.29

Exercise: Would you kindly share the measured B-score binding assay for CN1CCCN(C(c2ccccc2)c2ccc(Cl)cc2)CC1.Cl.Cl (stereo not shown) [Homochlorcyclizine dihydrochloride] ?
Solution: 1.404

Exercise: Would you kindly share the measured B-score binding assay for CC1(C)NC(=O)N(c2ccc([N+](=O)[O-])c(C(F)(F)F)c2)C1=O [Nilutamide] ?
Solution: 0.756

----------
Each entry below carries its recorded B-score functional assay.
Target or system: human NTCP (Homo sapiens, UniProt Q14973)
Method: Screening taurocholate uptake assay (96-well, [14C]taurocholate, 10 µM drug)
Experimental parameters: screening taurocholate uptake, 10 µM drug
Field format: numeric only.

Compound | Target or system | Reported measurement
CN(C)[C@@H]1C(O)=C(C(=O)NCNCCCC[C@H](N)C(=O)O)C(=O)[C@@]2(O)C(O)=C3C(=O)c4c(O)cccc4[C@@](C)(O)[C@H]3C[C@@H]12 [Lymecycline] | human NTCP (Homo sapiens, UniProt Q14973) | 0.716

Exercise: Would you kindly share the measured B-score functional assay for CC(C(=O)O)c1ccc(-c2ccccc2)c(F)c1 (stereo not shown) [Flurbiprofen] ?
Solution: -0.613

Exercise: Would you kindly share the measured B-score functional assay for Cc1ncc([N+](=O)[O-])n1CC(C)O (stereo not shown) [Secnidazole] ?
Solution: -0.391

Exercise: Would you kindly share the measured B-score functional assay for CCN(CC)CCNc1ccc(CO)c2sc3ccccc3c(=O)c12 [Hycanthone] ?
Solution: -0.266

Exercise: Would you kindly share the measured B-score functional assay for Br.C[N+]1([O-])[C@@H]2CC(OC(=O)[C@H](CO)c3ccccc3)C[C@H]1[C@@H]1O[C@@H]12 (stereo partly shown) [Scopolamin-N-oxide hydrobromide] ?
Solution: -2.352

Exercise: Would you kindly share the measured B-score functional assay for COc1cc(-c2ccc(N=Nc3ccc4c(S(=O)(=O)[O-])cc(S(=O)(=O)[O-])c(N)c4c3O)c(OC)c2)ccc1N=Nc1ccc2c(S(=O)(=O)[O-])cc(S(=O)(=O)[O-])c(N)c2c1O.[Na+].[Na+].[Na+].[Na+] [Chicago Sky Blue 6B] ?
Solution: -3.126

Exercise: Would you kindly share the measured B-score functional assay for COC(=O)Nc1nc2ccc(SC(C)C)cc2[nH]1 [Methiazole] ?
Solution: -0.825

----------
Target or system: human NTCP (Homo sapiens)
Sequence (Q14973 1-349): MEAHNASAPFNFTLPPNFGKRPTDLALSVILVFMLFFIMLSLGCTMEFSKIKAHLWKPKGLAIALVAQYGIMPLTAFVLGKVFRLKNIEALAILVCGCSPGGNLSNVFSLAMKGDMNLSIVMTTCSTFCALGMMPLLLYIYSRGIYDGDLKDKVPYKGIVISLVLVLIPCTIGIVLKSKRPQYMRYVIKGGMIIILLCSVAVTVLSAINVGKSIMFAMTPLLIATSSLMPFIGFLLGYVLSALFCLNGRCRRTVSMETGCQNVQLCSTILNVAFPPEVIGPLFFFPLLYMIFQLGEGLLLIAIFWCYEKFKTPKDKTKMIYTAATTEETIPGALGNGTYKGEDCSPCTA
Method: Screening taurocholate uptake assay (96-well, [14C]taurocholate, 10 µM drug)
Experimental parameters: screening taurocholate uptake, 10 µM drug
Where a name gives a salt, the structure may show the parent alone.
Recorded endpoint: B-score functional assay
Field format: numeric only.

Some molecules with known B-score functional assay results, for comparison:
Molecule | B-score functional assay
CCN(C)C(=O)Oc1cccc([C@H](C)N(C)C)c1 | -0.006
Cn1c(NCCN(CCO)CCCc2ccc([N+](=O)[O-])cc2)cc(=O)n(C)c1=O | 0.451
COc1cc2nc(N(C)CCCNC(=O)C3CCCO3)nc(N)c2cc1OC (stereo not drawn) [Alfuzosin hydrochloride] | -2.737
Clc1ccccc1C(c1ccccc1)(c1ccccc1)n1ccnc1 | -1.203
Cc1ncc([N+](=O)[O-])n1CC(O)CCl (stereo not drawn) | -1.861

Proceeding to the next molecule to report its B-score functional assay.
Exercise: Would you kindly share the measured B-score functional assay for C#C[C@]1(OC(C)=O)CC[C@H]2[C@@H]3CCC4=C[C@@H](OC(C)=O)CC[C@@H]4[C@H]3CC[C@@]21C [Ethynodiol diacetate] ?
Solution: -1.671

----------
Target or system: human NTCP (Homo sapiens)
Method: Screening taurocholate uptake assay (96-well, [14C]taurocholate, 10 µM drug)
Experimental parameters: screening taurocholate uptake, 10 µM drug
Counter-ions that a name gives are not always drawn.
Please use MET whenever B-score functional assay is not below -0.006, and NOT MET whenever it is.

These solved cases illustrate the format of a correct answer.
Compound | Class name
NNc1nncc2ccccc12 [Hydralazine hydrochloride] | NOT MET
C[C@@H]1C[C@H]2[C@@H]3CCC4=CC(=O)C=C[C@]4(C)[C@@]3(Cl)[C@@H](O)C[C@]2(C)[C@@]1(OC(=O)c1ccco1)C(=O)CCl [Mometasone furoate] | NOT MET
c1ccc(-c2ccc(C(c3ccccc3)n3ccnc3)cc2)cc1 (stereo not drawn) [Bifonazole] | NOT MET
O=c1[nH]c2ccccc2n1CCCN1CCC(n2c(=O)[nH]c3cc(Cl)ccc32)CC1 [Domperidone] | NOT MET
CC(=O)[C@@]12O[C@](C)(c3ccccc3)O[C@@H]1C[C@H]1[C@@H]3CCC4=CC(=O)CC[C@]4(C)[C@H]3CC[C@@]12C [Algestone acetophenide] | NOT MET

Exercise: Is B-score functional assay at least -0.006? Consider C[C@@H]1C[C@H]2[C@@H]3C[C@H](F)C4=CC(=O)C=C[C@]4(C)[C@@]3(F)[C@@H](O)C[C@]2(C)[C@@]1(O)C(=O)COC(=O)C(C)(C)C [Flumethasone pivalate]
Solution: MET

Exercise: Is B-score functional assay at least -0.006? Consider CCC1(c2cccc(O)c2)CCCCN(C)C1 (stereo not drawn) [Meptazinol hydrochloride]
Solution: NOT MET

Exercise: Is B-score functional assay at least -0.006? Consider CCCC(=O)Nc1ncnc2c1ncn2[C@@H]1O[C@@H]2COP(=O)([O-])O[C@H]2[C@H]1OC(=O)CCC.[Na+] [Bucladesine sodium salt]
Solution: NOT MET

Exercise: Is B-score functional assay at least -0.006? Consider CCCCNc1c(C(=O)OCC)c(C)nc2c1cnn2CC.Cl [Tracazolate hydrochloride]
Solution: NOT MET

Exercise: Is B-score functional assay at least -0.006? Consider CCOC(=O)NNc1nncc2ccccc12 [Todralazine hydrochloride]
Solution: NOT MET

Exercise: Is B-score functional assay at least -0.006? Consider OCCN1CCN(CCCN2c3ccccc3Sc3ccc(Cl)cc32)CC1 [Perphenazine]
Solution: NOT MET

Exercise: Is B-score functional assay at least -0.006? Consider CN(C)CCCN1c2ccccc2Sc2ccc(Cl)cc21 [Chlorpromazine hydrochloride]
Solution: MET

Exercise: Is B-score functional assay at least -0.006? Consider NCCc1c[nH]c2ccc(O)cc12 [Serotonin hydrochloride]
Solution: MET

Exercise: Is B-score functional assay at least -0.006? Consider OC(Cn1cncn1)(Cn1cncn1)c1ccc(F)cc1F [Fluconazole]
Solution: MET

----------
Target or system: human NTCP (Homo sapiens, UniProt Q14973)
Sequence (Q14973 1-349): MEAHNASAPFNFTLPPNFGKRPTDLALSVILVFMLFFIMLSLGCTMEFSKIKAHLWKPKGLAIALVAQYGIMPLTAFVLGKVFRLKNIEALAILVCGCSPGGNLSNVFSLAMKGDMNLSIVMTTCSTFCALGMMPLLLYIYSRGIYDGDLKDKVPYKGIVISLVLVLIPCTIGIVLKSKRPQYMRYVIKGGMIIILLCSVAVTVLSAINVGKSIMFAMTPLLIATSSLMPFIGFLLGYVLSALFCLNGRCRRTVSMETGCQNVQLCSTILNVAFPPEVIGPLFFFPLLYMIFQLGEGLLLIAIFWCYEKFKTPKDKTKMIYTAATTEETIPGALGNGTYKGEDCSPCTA
Method: Screening taurocholate uptake assay (96-well, [14C]taurocholate, 10 µM drug)
Experimental parameters: screening taurocholate uptake, 10 µM drug
Structures can show the parent of a compound that is named as a salt.
Each entry below carries its recorded B-score functional assay.

Some compounds with known B-score functional assay results, for comparison:
Compound | Target or system | Recorded endpoint | Reported measurement
Nc1ccccc1S(N)(=O)=O [2-Aminobenzenesulfonamide] | human NTCP (Homo sapiens, UniProt Q14973) | B-score functional assay | -0.592
COc1ccccc1OCC(O)CN1CCN(CC(=O)Nc2c(C)cccc2C)CC1 (stereo not shown) | human NTCP (Homo sapiens, UniProt Q14973) | B-score functional assay | 1.748
CC(=O)O[C@]1(C(C)=O)CC[C@H]2[C@@H]3C=C(Cl)C4=CC(=O)CC[C@]4(C)[C@H]3CC[C@@]21C [Chlormadinone acetate] | human NTCP (Homo sapiens, UniProt Q14973) | B-score functional assay | -1.751
CCCCC1=NC2(CCCC2)C(=O)N1Cc1ccc(-c2ccccc2-c2nnn[nH]2)cc1 [irbesartan, reference compound] | human NTCP (Homo sapiens, UniProt Q14973) | B-score functional assay | -3.733

Exercise: Would you kindly share the measured B-score functional assay for CS(=O)(=O)OCCCCOS(C)(=O)=O ?
Solution: -1.026

Exercise: Would you kindly share the measured B-score functional assay for CCCC(C(=O)OCCN(CC)CC)(c1ccccc1)c1ccccc1 [Proadifen hydrochloride] ?
Solution: -1.354

Exercise: Would you kindly share the measured B-score functional assay for COc1cc2ncnc(Nc3ccc(F)c(Cl)c3)c2cc1OCCCN1CCOCC1 ?
Solution: 0.784

Exercise: Would you kindly share the measured B-score functional assay for CC(C)NNC(=O)c1ccncc1.O=P(O)(O)O [Iproniazide phosphate] ?
Solution: 0.714

Exercise: Would you kindly share the measured B-score functional assay for O=C([O-])c1ccccc1-c1c2cc(Br)c(=O)cc-2oc2[c]([Hg+])c([O-])c(Br)cc12.[Na+].[Na+].[OH-] ?
Solution: -0.374

Exercise: Would you kindly share the measured B-score functional assay for c1ccc2c(CC3=NCCN3)cccc2c1 [Naphazoline hydrochloride] ?
Solution: -2.093

Exercise: Would you kindly share the measured B-score functional assay for CC1=C(/C=C/C(C)=C/C=C/C(C)=C/C(=O)O)C(C)(C)CCC1 ?
Solution: -0.152

Exercise: Would you kindly share the measured B-score functional assay for CN(C)c1nc(N(C)C)nc(N(C)C)n1 ?
Solution: -0.464

Exercise: Would you kindly share the measured B-score functional assay for Clc1ccc(COC(Cn2ccnc2)c2ccc(Cl)cc2Cl)cc1 (stereo not shown) [Econazole nitrate] ?
Solution: -2.794

Exercise: Would you kindly share the measured B-score functional assay for CCCCCN(CCCCC)C(=O)C(CCC(=O)[O-])NC(=O)c1ccc(Cl)c(Cl)c1.[Na+] (stereo not shown) [Lorglumide sodium salt] ?
Solution: -3.59

Exercise: Would you kindly share the measured B-score functional assay for CCOC(=O)c1ccc(OC(=O)CCCCCN=C(N)N)cc1.CS(=O)(=O)O [Gabexate mesilate] ?
Solution: 0.072

Exercise: Would you kindly share the measured B-score functional assay for NC(=O)N/N=C/c1ccc([N+](=O)[O-])o1 ?
Solution: 0.068

Exercise: Would you kindly share the measured B-score functional assay for C=CC1=C(C(=O)O)N2C(=O)[C@@H](NC(=O)/C(=N\O)c3csc(N)n3)[C@H]2SC1 ?
Solution: -0.454

Exercise: Would you kindly share the measured B-score functional assay for C[C@]1(Cn2ccnn2)[C@H](C(=O)O)N2C(=O)C[C@H]2S1(=O)=O ?
Solution: 2.889

Exercise: Would you kindly share the measured B-score functional assay for CC(C)NC[C@H](O)COc1cccc2ccccc12 [(S)-propranolol hydrochloride] ?
Solution: -0.168
